Cited source: paper PMC2787016

target: HLA-A*0201 (Homo sapiens, UniProt P04439, D140Y/D185E/D98H/E176V/E277Q/G131W/G231S/I119V/I121R/I166T/I218V/L300P/L318F/N151K/N90K/P208A/P217A/Q86G/Q94H/R138H/R169H/T345S); assay: biochemical; assay type: binding
Where no end group is shown, it is not given here.
// NB: equality with 80 nM counts as -1; only IC50 strictly below is 1

Query string: # check: IC50 < 80 nM for TVIKTLLEV [WWAV NP274–282]
Result string: -1

Query string: Then GLLQFIVFL [WWAV GPC42–50] ?
Result string: 1

Query string: Same again, this time with GLSQFTHTV [MACV NP19–27]
Result string: 1

Query string: Subsequent entry: AVYNFATCGI [LCMV GPC34–43]
Result string: -1

Query string: Please do the same for SIINHKFCNL [LASV GPC111–120] as well.
Result string: -1

Query string: One more sequence: GLSQFTQTV [JUNV NP19–27]
Result string: 1

Query string: Follow-up item: AINIALIAV [SABV GPC18–26]
Result string: -1

Query string: And LLPDALLFTL [SABV NP547–556] ?
Result string: 1

Query string: Also check GLLEWIFRA [SABV GPC142–150]
Result string: 1

Query string: Now give it for AMPGVLSYV [MACV NP432–440] too.
Result string: 1

Query string: And then ALNIALIAV [WWAV GPC18–26] , what is it?
Result string: 1

----------
Kindly supply the reported IC50 values for the records listed here.
target: HLA-A*1101 (Homo sapiens, UniProt P04439, A114D/D185E/E176A/F33Y/L180Q/S129P/T187R); assay: biochemical; assay type: binding
Where no end group is shown, it is not given here.
Express your answer in nM, writing the number without its unit.

Query string: Given the sequence SSQRDTILK [SABV NP82–90] , what is its reported IC50?
Result string: 9.3

Query string: Now give it for RTAPPSLYGR [MACV Z27–36] too.
Result string: 8.9

Query string: Likewise for STYYVHENK [SABV GPC90–98] ?
Result string: 6
